assay summary: Solubilities in water
Format: physicochemical
recorded conditions: water; read-out: Solubilities in water
readout: solubility

>  <smi>
CC1(C)O[C@@H]2[C@@H](O)[C@H](OC[C@H]3O[C@@H](Oc4c(-c5ccc(O)c(O)c5)oc5cc(O)cc(O)c5c4=O)[C@H](O)[C@@H](O)[C@@H]3O)OC[C@@H]2O1

>  <solubility>
600 µg/mL

$$$$
>  <smi>
C[C@@H]1O[C@@H](OC[C@H]2O[C@@H](Oc3c(-c4ccc(O)c(O)c4)oc4cc(O)cc(O)c4c3=O)[C@H](O)[C@@H](O)[C@@H]2O)[C@@H]2OC3(CCCCC3)O[C@@H]2[C@H]1O

>  <solubility>
< 100 µg/mL

$$$$

Enquiry: If you can, please state the reported solubility value of C[C@@H]1O[C@@H](Oc2c(-c3ccc(O)c(O)c3)oc3cc(O)cc(O)c3c2=O)[C@@H]2OC(C)(C)O[C@@H]2[C@H]1O .
Return: 1600 µg/mL

----------
Test system: carragenin edema
assay summary: Anti-inflammatory activity: carragenin edema test
Type: in vivo
recorded conditions: Rattus norvegicus, ip, 4 h, pH 7, read-out: % inhibition of carragenin edema, 75 mg/kg i.p., borate buffer pH 7, 4 h
readout: inhibition in vivo at 75 mg/kg (%)
Give a bare numeral; the unit % is implied.

Completed entries (count: 3):
>  <smi>
C[C@@H]1O[C@@H](OC[C@H]2O[C@@H](Oc3c(-c4ccc(O)c(O)c4)oc4cc(O)cc(O)c4c3=O)[C@H](O)[C@@H](O)[C@@H]2O)[C@@H]2OC3(CCCCC3)O[C@@H]2[C@H]1O

>  <measure unit>
%

>  <inhibition in vivo at 75 mg/kg>
0

$$$$
>  <smi>
C[C@@H]1O[C@@H](Oc2c(-c3ccc(O)c(O)c3)oc3cc(O)cc(O)c3c2=O)[C@@H]2OC(C)(C)O[C@@H]2[C@H]1O

>  <measure unit>
%

>  <inhibition in vivo at 75 mg/kg>
3

$$$$
>  <smi>
C[C@@H]1O[C@@H](OC[C@H]2O[C@@H](Oc3c(-c4ccc(O)c(O)c4)oc4cc(O)cc(O)c4c3=O)[C@H](O)[C@@H](O)[C@@H]2O)[C@@H]2OC(C)(C)O[C@@H]2[C@H]1O

>  <measure unit>
%

>  <inhibition in vivo at 75 mg/kg>
14

$$$$

Enquiry: What value of inhibition in vivo at 75 mg/kg on carragenin edema does C[C@@H]1O[C@@H](Oc2c(-c3ccc(O)c(O)c3)oc3cc(O)cc(O)c3c2=O)[C@@H]2OC3(CCCCC3)O[C@@H]2[C@H]1O have?
Return: 81

----------
assayed system: COMT (Rattus norvegicus, UniProt P22734)
Construct: The enzyme is extracted from rat liver; from tissue; host or cells: rat liver
Sequence (P22734 1-221 isoform P22734-2): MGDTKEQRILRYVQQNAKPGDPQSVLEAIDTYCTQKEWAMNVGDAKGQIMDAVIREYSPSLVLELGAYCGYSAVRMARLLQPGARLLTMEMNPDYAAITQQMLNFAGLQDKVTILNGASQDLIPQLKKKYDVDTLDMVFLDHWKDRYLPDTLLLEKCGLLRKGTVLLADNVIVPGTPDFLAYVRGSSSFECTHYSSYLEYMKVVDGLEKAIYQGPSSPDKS
assay summary: Inhibition of COMT in vitro (enzyme from rat liver, 4-nitrocatechol substrate)
Type: biochemical
recorded conditions: 10^-4 mole/l, in dimethylsulfoxide solution; read-out: percentages of inhibition (COMT)
readout: inhibition at 100 µM

Completed entries (count: 3):
>  <compound>
C[C@@H]1O[C@@H](OC[C@H]2O[C@@H](Oc3c(-c4ccc(O)c(O)c4)oc4cc(O)cc(O)c4c3=O)[C@H](O)[C@@H](O)[C@@H]2O)[C@@H]2OC(C)(c3ccc(Cl)cc3)O[C@@H]2[C@H]1O (stereo partly drawn)

>  <inhibition at 100 µM>
74%

$$$$
>  <compound>
C[C@@H]1O[C@@H](OC[C@H]2O[C@@H](Oc3c(-c4ccc(O)c(O)c4)oc4cc(O)cc(O)c4c3=O)[C@H](O)[C@@H](O)[C@@H]2O)[C@@H]2OC(c3ccc(O)cc3)O[C@@H]2[C@H]1O (stereo partly drawn)

>  <inhibition at 100 µM>
90%

$$$$
>  <compound>
C[C@@H]1O[C@@H](OC[C@H]2O[C@@H](Oc3c(-c4ccc(O)c(O)c4)oc4cc(O)cc(O)c4c3=O)[C@H](O)[C@@H](O)[C@@H]2O)[C@@H]2OC3(O[C@@H]2[C@H]1O)C1CC2CC(C1)CC3C2 (stereo partly drawn)

>  <inhibition at 100 µM>
81 to 83%

$$$$

Enquiry: If you can, please state the reported inhibition at 100 µM value of COc1ccc(C2O[C@@H]3[C@@H](O)[C@H](C)O[C@@H](OC[C@H]4O[C@@H](Oc5c(-c6ccc(O)c(O)c6)oc6cc(O)cc(O)c6c5=O)[C@H](O)[C@@H](O)[C@@H]4O)[C@@H]3O2)cc1 (stereo partly drawn) .
Return: 80 to 92%

Enquiry: If you can, please state the reported inhibition at 100 µM value of Cc1ccc(C2(C)O[C@@H]3[C@@H](O)[C@H](C)O[C@@H](OC[C@H]4O[C@@H](Oc5c(-c6ccc(O)c(O)c6)oc6cc(O)cc(O)c6c5=O)[C@H](O)[C@@H](O)[C@@H]4O)[C@@H]3O2)cc1 (stereo partly drawn) .
Return: 74%

Enquiry: If you can, please state the reported inhibition at 100 µM value of C[C@@H]1O[C@@H](OC[C@H]2O[C@@H](Oc3c(-c4ccc(O)c(O)c4)oc4cc(O)cc(O)c4c3=O)[C@H](O)[C@@H](O)[C@@H]2O)[C@@H]2OC3(CCC4CCCCC4C3)O[C@@H]2[C@H]1O (stereo partly drawn) .
Return: 52%

----------
assayed system: Aldose Reductase (Bos taurus)
Construct: The enzyme is extracted from beef eye lenses; from tissue; host or cells: beef eye lenses
assay summary: Inhibition of aldose reductase in vitro (enzyme from beef eye lenses, glyceraldehyde substrate)
Assay type: biochemical
recorded conditions: 10^-4 mole/l, in DMF solution; read-out: percentages of inhibition (aldose reductase)
We use 60% as the dividing line for inhibition at 100 µM: on or above the line is fulfilled, below is not fulfilled.

The examples below pair each entry with its known result.
>  <compound>
C[C@@H]1O[C@@H](Oc2c(-c3ccc(O)c(O)c3)oc3cc(O)cc(O)c3c2=O)[C@@H]2OC(C)(C)O[C@@H]2[C@H]1O

>  <discrete label>
fulfilled

$$$$
>  <compound>
O=c1ccc2cc(O[C@@H]3O[C@H](CO)[C@@H](O)[C@H](O)[C@H]3O)c(O)cc2o1 [Esculin, reference compound]

>  <discrete label>
not fulfilled

$$$$
>  <compound>
C[C@@H]1O[C@@H](O[C@H]2[C@H](Oc3cc(O)c4c(c3)O[C@H](c3ccc(O)cc3)CC4=O)O[C@H](CO)[C@@H](O)[C@@H]2O)[C@H](O)[C@H](O)[C@H]1O [Naringin, reference compound]

>  <discrete label>
not fulfilled

$$$$

Please turn your attention to the following entry.
Enquiry: hey, is inhibition at 100 µM for this one >= 60%? O=c1ccc2cc(O[C@@H]3O[C@@H]4COC5(CCCCC5)O[C@H]4[C@H](O)[C@H]3O)c(O)cc2o1
Return: fulfilled

----------
System: carragenin edema
assay summary: Anti-inflammatory activity: carragenin edema test
Type: in vivo
recorded conditions: Rattus norvegicus, ip, 6 h, 200 mg/kg i.p., substantially alkaline pH solution, 6 h; read-out: % inhibition of carragenin edema
readout: inhibition in vivo at 200 mg/kg

Enquiry: If you can, please state the reported inhibition in vivo at 200 mg/kg value of C[C@@H]1O[C@@H](O[C@H]2[C@H](Oc3cc(O)c4c(c3)OC(c3ccc(O)cc3)CC4=O)O[C@H](CO)[C@@H](O)[C@@H]2O)[C@@H]2OC(C)(C)O[C@@H]2[C@H]1O (some centres unmarked) .
Return: 24%

----------
assay summary: Anti-inflammatory activity: carragenin edema test
Type: in vivo
recorded conditions: rat, in vivo, ip; 150 mg/kg i.p., borate buffer pH 7
readout: mortality at 5 h (%)
Give a bare numeral; the unit % is implied.

Enquiry: If you can, please state the reported mortality at 5 h value of C[C@@H]1O[C@@H](Oc2c(-c3ccc(O)c(O)c3)oc3cc(O)cc(O)c3c2=O)[C@@H]2OC3(CCCCC3)O[C@@H]2[C@H]1O .
Return: 80

----------
Tested on: carragenin edema
assay summary: Anti-inflammatory activity: carragenin edema test
Type: in vivo
recorded conditions: Rattus norvegicus, ip, 200 mg/kg i.p., substantially alkaline pH solution, 1/2 h; read-out: % inhibition of carragenin edema
inhibition in vivo at 200 mg/kg for assorted compounds
Quick note: unit goes after the number.

Completed entries (count: 4):
>  <compound>
COc1ccc(-c2cc(=O)c3c(O)cc(O[C@@H]4O[C@H](CO[C@@H]5O[C@@H](C)[C@H](O)[C@H]6OC(C)(C)O[C@@H]56)[C@@H](O)[C@H](O)[C@H]4O)cc3o2)cc1O [No. 32]

>  <assayed system>
carragenin edema

>  <measurement>
8%

$$$$
>  <compound>
COc1ccc(C2CC(=O)c3c(O)cc(O[C@@H]4O[C@H](CO[C@@H]5O[C@@H](C)[C@H](O)[C@H]6OC(C)(C)O[C@@H]56)[C@@H](O)[C@H](O)[C@H]4O)cc3O2)cc1O (some centres unmarked) [No. 18]

>  <assayed system>
carragenin edema

>  <measurement>
0%

$$$$
>  <compound>
O=c1ccc2cc(O[C@@H]3O[C@@H]4COC5(CCCCC5)O[C@H]4[C@H](O)[C@H]3O)c(O)cc2o1 [No. 16]

>  <assayed system>
carragenin edema

>  <measurement>
59%

$$$$
>  <compound>
C[C@@H]1O[C@@H](O[C@H]2[C@H](Oc3cc(O)c4c(c3)OC(c3ccc(O)cc3)CC4=O)O[C@H](CO)[C@@H](O)[C@@H]2O)[C@@H]2OC(C)(C)O[C@@H]2[C@H]1O (some centres unmarked) [No. 8]

>  <assayed system>
carragenin edema

>  <measurement>
9%

$$$$

Consider the record given below.
Enquiry: If you can, please state the reported inhibition in vivo at 200 mg/kg value of CC1(C)OC[C@H]2O[C@@H](Oc3cc4ccc(=O)oc4cc3O)[C@H](O)[C@@H](O)[C@@H]2O1 [No. 15] .
Return: 18%
